Tested on: rodent lifetime carcinogenesis bioassay, tumor incidence TD50
experiment: carcinogenic potency in animals, long-term in vivo studies, CPDB compilation (AID 1745844)
experimental_conditions: mouse; strain CDF1; males; in feed; site: blood vessels; lesion: hemangioendothelial sarcoma; dosed 84 weeks; study length 84 weeks
readout_label: TD50
Please report the result as a number followed by the unit.

Lab book: TD50 of `Nc1ccc2nc3ccccn3c2n1` noted as 27.3 mg/kg/day

----------
Tested on: rodent lifetime carcinogenesis bioassay, tumor incidence TD50
experiment: carcinogenic potency in animals, long-term in vivo studies, CPDB compilation (AID 1745844)
experimental_conditions: mouse; strain B6C3F1; females; inhaled; site: liver; lesion: hepatocellular carcinoma; dosed 100 weeks; study length 100 weeks
readout_label: TD50 (mg/kg/day)
Give bare numbers, in mg/kg/day.

Lab book: TD50 of `CCCl` noted as 7580

----------
Tested on: rodent lifetime carcinogenesis bioassay, tumor incidence TD50
experiment: carcinogenic potency in animals, long-term in vivo studies, CPDB compilation (AID 1745844)
experimental_conditions: rat; strain Charles River CD (Sprague-Dawley); males; in feed; site: liver; lesion: hepatocellular carcinoma; dosed 104 weeks; study length 104 weeks
Active and inactive are the calls of the source. How the calls were made is not given here.
Could you please report measured TD50 for the items listed next?

Known results for compounds:
Cc1ccc(C)c(OCCCC(C)(C)C(=O)O)c1: 247 mg/kg/day
CCCCOCCOCCOCc1cc2c(cc1CCC)OCO2: 78500 mg/kg/day (inactive)
COC(=O)C1=C(C)NC(C)=C(C(=O)OCCN2CCN(C(c3ccccc3)c3ccccc3)CC2)C1c1cccc([N+](=O)[O-])c1 (centres undefined): 405 mg/kg/day (inactive)

Now for a further compound.
Lab book: TD50 of `O=P(OC(CCl)CCl)(OC(CCl)CCl)OC(CCl)CCl` noted as 390 mg/kg/day

----------
System: rodent lifetime carcinogenesis bioassay, tumor incidence TD50
experiment: carcinogenic potency in animals, long-term in vivo studies, CPDB compilation (AID 1745844)
experimental_conditions: rat; strain F344/DuCrj; males; in feed; site: stomach, glandular, pyloric region; lesion: adenocarcinoma; dosed 104 weeks; study length 104 weeks
readout_label: TD50

// assay rodent lifetime carcinogenesis bioassay, tumor incidence TD50, entry `Oc1ccccc1O` , TD50 value = 3320 mg/kg/day

----------
Tested on: rodent lifetime carcinogenesis bioassay, tumor incidence TD50
experiment: carcinogenic potency in animals, long-term in vivo studies, CPDB compilation (AID 1745844)
experimental_conditions: rat; strain Fischer 344; males; by gavage; site: adrenal gland; lesion: pheochromocytoma + pheochromocytoma, malignant; dosed 103 weeks; study length 104 weeks
readout_label: TD50 (mg/kg/day)
Answers are plain numbers, in mg/kg/day.

C=CC1CC=CCC1 (configuration not stated): 159

Now for a further molecule.
Lab book: TD50 of CCCCC(CC)COP(=O)(OCC(CC)CCCC)OCC(CC)CCCC (configuration not stated) noted as 5290

----------
System: rodent lifetime carcinogenesis bioassay, tumor incidence TD50
experiment: carcinogenic potency in animals, long-term in vivo studies, CPDB compilation (AID 1745844)
experimental_conditions: rat; strain Holtzman albino (Sprague-Dawley derived); females; in feed; site: forestomach; lesion: squamous-cell papilloma; dosed 36 weeks; study length 54 weeks
readout_label: TD50 (mg/kg/day)
Give bare numbers, in mg/kg/day.

Lab book: TD50 of `CC(C)=NNc1nc(-c2ccc([N+](=O)[O-])o2)cs1` noted as 11
